experimental protocol: Equilibrium solubility of crystal forms by UV-Vis spectrophotometry (279 nm)
Assay type: physicochemical
run parameters: pH = 7.0 aqueous solution (deionized water)
Can you tell me solubility for the items I'm about to list?
In your response, put the unit directly after the numeric value.

# count of solved cases: 3
| compound | quantity | experimental result |
| --- | --- | --- |
| Cn1c(=O)cc(N2CCC[C@@H](N)C2)n(Cc2cc(F)ccc2C#N)c1=O [TRE-IV] | solubility | 19.56 mg/mL |
| Cn1c(=O)cc(N2CCC[C@@H](N)C2)n(Cc2cc(F)ccc2C#N)c1=O [TRE-III] | solubility | 14.93 mg/mL |
| Cn1c(=O)cc(N2CCC[C@@H](N)C2)n(Cc2cc(F)ccc2C#N)c1=O [original crystal form, reference compound] | solubility | 3.40 mg/mL |

Hello, I would appreciate it if you could give solubility for each entry below.
1. Cn1c(=O)cc(N2CCC[C@@H](N)C2)n(Cc2cc(F)ccc2C#N)c1=O [TRE-II]
2. Cn1c(=O)cc(N2CCC[C@@H](N)C2)n(Cc2cc(F)ccc2C#N)c1=O [TRE-V]

["15.98 mg/mL", "12.64 mg/mL"]

----------
Consider the following molecules; for each one, report its solubility.
experimental protocol: Equilibrium solubility of crystal forms by UV-Vis spectrophotometry (279 nm)
Assay type: physicochemical
run parameters: pH = 6.8 PBS

| molecule | solubility |
| --- | --- |
| Cn1c(=O)cc(N2CCC[C@@H](N)C2)n(Cc2cc(F)ccc2C#N)c1=O [TRE-III] | 35.90 mg/mL |

Below is a list of molecules. For each, state its recorded solubility.
1. Cn1c(=O)cc(N2CCC[C@@H](N)C2)n(Cc2cc(F)ccc2C#N)c1=O [TRE-IV]
2. Cn1c(=O)cc(N2CCC[C@@H](N)C2)n(Cc2cc(F)ccc2C#N)c1=O [TRE-V]
3. Cn1c(=O)cc(N2CCC[C@@H](N)C2)n(Cc2cc(F)ccc2C#N)c1=O [TRE-II]
4. Cn1c(=O)cc(N2CCC[C@@H](N)C2)n(Cc2cc(F)ccc2C#N)c1=O [original crystal form, reference compound]

1: 35.05 mg/mL; 2: 36.12 mg/mL; 3: 40.01 mg/mL; 4: 15.46 mg/mL

Data provenance: patent US20250163018A1
